System: Fer (mouse);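 also: 11-residue human phosphosite peptides and single-mutation variants displayed on the E. coli surface, counted by deep sequencing, each peptide's frequency after selection divided by its frequency in the unselected input library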;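 also: frequency after pTyr selection over input frequency; kinase dosed for 20-30% of maximal phosphorylation in three min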
measurement description: phosphorylation enrichment, bacterial display (enrichment ratio); higher = better substrate or ligand; peptides without Tyr show the background
Grouping key: phosphorylation enrichment. Bins: LOW (below 0.5), MID (0.5 to below 0.7), HIGH (0.7 or more)

Some entries whose results are on file:
LGSVVYAQSKE [KCNQ2_Y226_H228Q] :: HIGH
TEIGQYGNGLK [MORC2_Y100_Q96E] :: LOW
SVESPYGSVTF [NDRG2_Y47_T45S] :: HIGH
YETDYYRKGGK [INSR_Y1190] :: LOW
TQPSPYAVFLF [RPGRIP1_Y823_R827L_YF] :: HIGH

Class? Entry: IKSSIYDNRNE [ARAP2_Y380_K384N]
LOW

Class? Entry: RAFRRYLLKQK [SCN2A_Y1919_YF]
MID

Class? Entry: LLKANYELLNA [POLR3A_Y714_K713N]
MID

Class? Entry: LKGQVYILGWE [ASS1_Y359_R363W]
MID

Class? Entry: QMVGMYAFSFM [AVPR2_Y124_S126F_YF]
HIGH

Class? Entry: CTTIHYNFMSN [TP53_Y234_C238S_YF]
MID

Class? Entry: LAIERYVVVCK [RHO_Y136]
HIGH

Class? Entry: GLCSYYETSKM [MAGED2_Y449_R446C]
HIGH

Class? Entry: ALVLQYLRVPL [F9_Y371]
MID

Class? Entry: EREYKYGAHKY [OAT_Y50_N54K]
LOW

Class? Entry: QLLIKYPPEEV [ZZZ3_Y670]
LOW

Class? Entry: LDYNEYFRNLN [HPRT1_Y198_D201N]
LOW

Class? Entry: SVVVPYAPPEV [TP53_Y220_E221A]
LOW

Class? Entry: PDGREYIYVDP [PDGFRA_Y572_H570R]
HIGH

Class? Entry: ALEKTYNTFRS [B4GALNT2_Y538_YF]
LOW

Class? Entry: AFGEVYEGQES [ALK_Y1131_V1135E]
LOW

Class? Entry: RASGIYFVPKG [APBB1IP_Y340_YF]
HIGH
